- ASSAY_PROTOCOL: in vivo
- Format: in vivo, mice
- CONDITION_SUMMARY: FVB (wild type), mouse, in vivo, iv, 0.5 mg/kg
Numbered stars: 1 amine (or outer) side, 2 acyl side, 3 side chain; on linkers, the order of the positions; unused ones are H or OH. Bridge positions count the residues as written; N and C are the ends. Square brackets hold non-standard residues; d marks the D form. Peptide text beside a SMILES is read from it. I, II: the chains in the order shown. Actinocin(9to1) = Cc1c2oc3c(C)ccc(C(=O)[*:1])c3nc-2c(C(=O)[*:2])c(N)c1=O; NMeV = CN[C@H](C(=O)O)C(C)C; Sar = CNCC(=O)O
EXPERIMENTAL_ENDPOINT: Cmax (µg/mL)
// units = µg/mL; emit number, no label

What value of Cmax has been reported for the following compound? Cc1c2oc3c(C)ccc(C(=O)N[C@@H]4C(=O)N[C@H](C(C)C)C(=O)N5CCC[C@H]5C(=O)N(C)CC(=O)N(C)[C@@H](C(C)C)C(=O)O[C@@H]4C)c3nc-2c(C(=O)N[C@@H]2C(=O)N[C@H](C(C)C)C(=O)N3CCC[C@H]3C(=O)N(C)CC(=O)N(C)[C@@H](C(C)C)C(=O)O[C@@H]2C)c(N)c1=O [Act D, actinomycin D] (I: T[dV]P[Sar][NMeV] / II: T[dV]P[Sar][NMeV]; ester I:1-I:C, II:1-II:C; linker I:N-II:N via Actinocin(9to1))
0.0686
